pIC50 listing for selected molecules.
Target: DNA gyrase (Escherichia coli)
Assay: Inhibition of Escherichia coli JM109 DNA gyrase assessed as DNA triple helix formation by supercoiling assay
pIC50: −log10 of the molar value.

# molecule smiles, reading qualifier, pIC50
data = [
    ("CO[C@@H]1[C@@H](OC(=O)c2ccc(C)[nH]2)[C@@H](O)[C@H](Oc2ccc3c(O)c(NC(=O)c4ccc(O)c(NC(=O)C(C)C)c4)c(=O)oc3c2Cl)OC1(C)C", "=", 7.39),
    ("CO[C@@H]1[C@@H](OC(=O)c2ccc(C)[nH]2)[C@@H](O)[C@H](Oc2ccc3c(O)c(NC(=O)/C=C/c4ccccc4)c(=O)oc3c2Cl)OC1(C)C", "=", 7.47),
    ("CO[C@@H]1[C@@H](OC(=O)c2ccc(C)[nH]2)[C@@H](O)[C@H](Oc2ccc3c(O)c(NC(=O)c4ccccc4)c(=O)oc3c2Cl)OC1(C)C", ">", 8.30),
]

Data provenance is ChEMBL document CHEMBL1275417.
